ASSAYED TARGET: human TGFßRII (antigen of the Octet experiments) (human, UniProt P37173 23-166)
Sequence (P37173 23-166): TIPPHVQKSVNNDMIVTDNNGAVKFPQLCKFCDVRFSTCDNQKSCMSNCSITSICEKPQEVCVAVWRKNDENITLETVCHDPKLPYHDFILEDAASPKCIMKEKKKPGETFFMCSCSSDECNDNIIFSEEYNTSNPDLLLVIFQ
ASSAY INFO: BLI (Octet)
READOUT NAME: pKd
pKd field: float, defined as -log10 of concentration (mol/L).

Query: Need pKd, item H1.12 L1 XENP34468 (antibody, V domains shown) VH: QLQVQESGPGLVKPSETLSLTCTVSGGSISESYFSWGWIRQPPGKGLEWIGSFYYGEKTYYNPSLKSRATISIDTSKSQFSLKLSSVTAADTAVYYCPRGPTMIRGVIDSWGQGTLVTVSS VL: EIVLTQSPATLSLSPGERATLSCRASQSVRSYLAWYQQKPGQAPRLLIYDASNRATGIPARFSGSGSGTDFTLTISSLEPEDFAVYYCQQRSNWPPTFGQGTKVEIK
Result: 9.43

Query: Same again, this time with H1.29 L1 XENP34485 (antibody, V domains shown) VH: QLQVQESGPGLVKPSETLSLTCTVSGGSISNSYFTWGWIRQPPGKGLEWIGSFYYGEKTYYNPSLKSRATISIDTSKSQFSLKLSSVTAADTAVYYCPRGPTMIRGVIDSWGQGTLVTVSS VL: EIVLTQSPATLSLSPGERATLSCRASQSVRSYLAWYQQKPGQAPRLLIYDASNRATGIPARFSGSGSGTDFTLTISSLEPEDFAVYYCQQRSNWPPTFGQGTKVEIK
Result: 8.75

Query: Same again, this time with H1.13 L1 XENP34469 (antibody, V domains shown) VH: QLQVQESGPGLVKPSETLSLTCTVSGGSISGSYFSWGWIRQPPGKGLEWIGSFYYGEKTYYNPSLKSRATISIDTSKSQFSLKLSSVTAADTAVYYCPRGPTMIRGVIDSWGQGTLVTVSS VL: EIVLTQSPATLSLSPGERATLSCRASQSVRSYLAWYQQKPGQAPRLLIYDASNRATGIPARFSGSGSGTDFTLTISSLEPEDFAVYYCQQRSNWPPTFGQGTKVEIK
Result: 9.00

Ref: patent US20220144956A1
